From: paper PMC5650530

molecular target: UniProt:Q8N8N7; assay type: binding; settings: read-out: IC50, blockade of A-DA probe labeling of recombinant PTGR2; transfected cell lysates; A-DA 5 μM; 95% CI 3.0–5.3 μM
measured quantity: IC50
Report the figure along with its unit, number first.

Problem: Please supply the value of reported IC50 for the item CC(C)CCC(=O)[C@]1(O)C(=O)[C-](C(=O)CC(C)C)C(=O)[C@H]1CCC(C)C.[K+] (stereo partly shown) [KDT501]
Solution: 4 µM

----------
target: PTGR2 (Homo sapiens); experiment: 15-keto PGE2 reductase activity of PTGR2-transfected HEK293T cell lysates; assay type: biochemical; conditions: read-out: IC50, inhibition of 15-keto PGE2 reductase activity; lysates from HEK293T cells transfected with PTGR2; 95% CI 1.4–2.4 μM
Sequence (Q8N8N7 whole entry, species assumed): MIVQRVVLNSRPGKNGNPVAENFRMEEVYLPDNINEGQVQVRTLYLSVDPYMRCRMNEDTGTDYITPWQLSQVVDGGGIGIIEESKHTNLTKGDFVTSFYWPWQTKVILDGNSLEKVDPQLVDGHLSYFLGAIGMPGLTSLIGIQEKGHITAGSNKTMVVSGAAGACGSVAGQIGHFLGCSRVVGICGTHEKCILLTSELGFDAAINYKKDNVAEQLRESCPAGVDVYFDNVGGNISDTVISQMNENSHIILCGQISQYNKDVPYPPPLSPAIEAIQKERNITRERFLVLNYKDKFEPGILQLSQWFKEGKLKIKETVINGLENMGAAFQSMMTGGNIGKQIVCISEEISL
measured quantity: IC50 (nM)
One number for each entry, in nM.

Problem: Look up IC50 of CC(C)CCC(=O)[C@]1(O)C(=O)[C-](C(=O)CC(C)C)C(=O)[C@H]1CCC(C)C.[K+] (stereo partly shown) [KDT501] and report it.
Solution: 1800
